test system: Mycobacterium tuberculosis Erdman (autoluminescent); experiment: GRinf, maximum normalised growth rate inhibition (unitless (-1 to 1)); higher = less effect (negative = killing); conditions: in vitro model: dormancy (butyrate + nitrate, low O2); time point: terminal (~4-5 doublings, model-specific)
Rule: met for GRinf not less than -0.2, not met for anything less.

Molecule: CC(C)/N=c1\cc2n(-c3ccc(Cl)cc3)c3ccccc3nc-2cc1Nc1ccc(Cl)cc1 [clofazimine] + O=[N+]([O-])c1cn2c(n1)OC[C@@H](OCc1ccc(OC(F)(F)F)cc1)C2 [pretomanid]
Target Or Test System: Mycobacterium tuberculosis Erdman (autoluminescent)
Discrete Label: not met

Molecule: CC[C@@H](CO)NCCN[C@@H](CC)CO [ethambutol] + CO[C@H]1/C=C/O[C@@]2(C)Oc3c(C)c(O)c4c(O)c(c(/C=N/N5CCN(C6CCCC6)CC5)c(O)c4c3C2=O)NC(=O)/C(C)=C\C=C\[C@H](C)[C@H](O)[C@@H](C)[C@@H](O)[C@@H](C)[C@H](OC(C)=O)[C@@H]1C
Target Or Test System: Mycobacterium tuberculosis Erdman (autoluminescent)
Discrete Label: not met

Molecule: NNC(=O)c1ccncc1 [isoniazid] + CO[C@H]1/C=C/O[C@@]2(C)Oc3c(C)c(O)c4c(O)c(c(/C=N/N5CCN(C6CCCC6)CC5)c(O)c4c3C2=O)NC(=O)/C(C)=C\C=C\[C@H](C)[C@H](O)[C@@H](C)[C@@H](O)[C@@H](C)[C@H](OC(C)=O)[C@@H]1C [rifapentine]
Target Or Test System: Mycobacterium tuberculosis Erdman (autoluminescent)
Discrete Label: met

Molecule: CC(=O)NC[C@H]1CN(c2ccc(N3CCOCC3)c(F)c2)C(=O)O1 [linezolid] + CO[C@H]1/C=C/O[C@@]2(C)Oc3c(C)c(O)c4c(O)c(c(/C=N/N5CCN(C)CC5)c(O)c4c3C2=O)NC(=O)/C(C)=C\C=C\[C@H](C)[C@H](O)[C@@H](C)[C@@H](O)[C@@H](C)[C@H](OC(C)=O)[C@@H]1C [rifampicin]
Target Or Test System: Mycobacterium tuberculosis Erdman (autoluminescent)
Discrete Label: met

Molecule: COc1nc2ccc(Br)cc2cc1[C@@H](c1ccccc1)[C@@](O)(CCN(C)C)c1cccc2ccccc12 [bedaquiline] + CO[C@H]1/C=C/O[C@@]2(C)Oc3c(C)c(O)c4c(O)c(c(/C=N/N5CCN(C6CCCC6)CC5)c(O)c4c3C2=O)NC(=O)/C(C)=C\C=C\[C@H](C)[C@H](O)[C@@H](C)[C@@H](O)[C@@H](C)[C@H](OC(C)=O)[C@@H]1C [rifapentine]
Target Or Test System: Mycobacterium tuberculosis Erdman (autoluminescent)
Discrete Label: met
